# study.system: Cannabinoid receptor 1 (Homo sapiens)
# Sequence (P21554 whole entry): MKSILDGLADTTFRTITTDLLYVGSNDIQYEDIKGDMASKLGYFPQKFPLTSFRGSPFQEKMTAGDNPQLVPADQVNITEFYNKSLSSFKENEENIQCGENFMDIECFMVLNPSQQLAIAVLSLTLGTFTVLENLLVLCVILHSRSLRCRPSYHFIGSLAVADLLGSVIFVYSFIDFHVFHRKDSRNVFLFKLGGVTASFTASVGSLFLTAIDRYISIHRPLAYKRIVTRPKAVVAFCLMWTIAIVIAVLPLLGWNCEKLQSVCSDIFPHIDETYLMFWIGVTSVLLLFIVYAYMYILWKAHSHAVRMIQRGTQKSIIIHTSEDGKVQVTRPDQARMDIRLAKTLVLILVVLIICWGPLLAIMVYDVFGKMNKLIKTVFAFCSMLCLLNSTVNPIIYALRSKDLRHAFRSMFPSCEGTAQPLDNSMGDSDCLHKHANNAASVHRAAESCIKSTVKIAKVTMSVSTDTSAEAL
# assay.explanation: Displacement of [3H]CP55940 from recombinant human CB1R expressed in CHO cell membranes incubated for 90 mins
pKi: −log10 of the molar value.
recorded.metric: pKi

>>> meas_value("COc1ccc(-c2cc(C(=O)NC3CCCCCC3)c(=O)n(Cc3ccc(F)cc3)c2C)cc1")
8.01
>>> meas_value("Cc1nc(OCc2ccc(F)cc2)c(C(=O)NC2CCCCCC2)cc1-c1ccc(F)cc1")
5.34
>>> meas_value("Cc1c(Cl)cc(C(=O)NC2CCCCCC2)c(=O)n1Cc1ccc(F)cc1")
8.43
>>> meas_value("Cc1nc(OCc2ccc(F)cc2)c(C(=O)NC2CCCCCC2)cc1Br")
7.12
>>> meas_value("Cc1c(-c2ccc(F)cc2)cc(C(=O)NC2CCCCCC2)c(=O)n1Cc1ccc(F)cc1")
7.31
>>> meas_value("Cc1ccc(C(=O)NC2CCCCCC2)c(OCc2ccc(F)cc2)n1")
7.78
>>> meas_value("Cc1c(F)cc(C(=O)NC2CCCCCC2)c(=O)n1Cc1ccc(F)cc1")
8.31
>>> meas_value("Cc1ccc(C(=O)NC2CCCCCC2)c(=O)n1Cc1ccc(F)cc1")
7.42
>>> meas_value("Cc1c(-c2ccccc2)cc(C(=O)NC2CCCCCC2)c(=O)n1Cc1ccc(F)cc1")
6.75
>>> meas_value("Cc1c(Br)cc(C(=O)NC2CCCCCC2)c(=O)n1Cc1ccc(F)cc1")
8.54

* * *

Recorded EC50 by entry
# study.system: Cannabinoid receptor 1 (Homo sapiens)
# assay.explanation: Agonist activity at human CB1R expressed in CHO cell membranes after 90 mins by [35S]GTPgammaS assay
# Format: functional, Membrane
recorded.metric: EC50 (nM)

>>> meas_value("Cc1c(Cl)cc(C(=O)NC2CCCCCC2)c(=O)n1Cc1ccc(F)cc1")
1.12
>>> meas_value("Cc1nc(OCc2ccc(F)cc2)c(C(=O)NC2CCCCCC2)cc1Br")
586
>>> meas_value("Cc1ccc(C(=O)NC2CCCCCC2)c(=O)n1Cc1ccc(F)cc1")
40.4
>>> meas_value("Cc1c(F)cc(C(=O)NC2CCCCCC2)c(=O)n1Cc1ccc(F)cc1")
43.2
>>> meas_value("Cc1c(Br)cc(C(=O)NC2CCCCCC2)c(=O)n1Cc1ccc(F)cc1")
56.1
>>> meas_value("Cc1ccc(C(=O)NC2CCCCCC2)c(OCc2ccc(F)cc2)n1")
86.2

* * *

Recorded IC50 by entry
# study.system: Lysophosphatidylserine lipase ABHD12 (Homo sapiens, UniProt Q8N2K0)
# Sequence (Q8N2K0 whole entry): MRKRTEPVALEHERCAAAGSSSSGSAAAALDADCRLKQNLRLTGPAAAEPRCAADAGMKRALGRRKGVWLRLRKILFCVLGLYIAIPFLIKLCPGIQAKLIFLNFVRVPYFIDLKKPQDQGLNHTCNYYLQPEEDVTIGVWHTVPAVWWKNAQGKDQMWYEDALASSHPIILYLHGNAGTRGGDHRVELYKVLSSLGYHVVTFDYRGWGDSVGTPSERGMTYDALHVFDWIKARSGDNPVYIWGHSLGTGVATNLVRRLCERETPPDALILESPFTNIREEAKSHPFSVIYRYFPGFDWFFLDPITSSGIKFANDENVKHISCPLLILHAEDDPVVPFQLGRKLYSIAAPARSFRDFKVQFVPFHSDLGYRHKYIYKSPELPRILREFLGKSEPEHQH
# assay.explanation: Inhibition of human ABHD12 expressed in HEK293 cells using 2-OG as substrate preincubated for 30 mins followed by substrate addition and measured after 5 mins by liquid scintillation spectroscopy
recorded.metric: IC50

>>> meas_value("Cc1c(Br)cc(C(=O)NC2CCNCC2)c(=O)n1Cc1ccc(F)cc1")
"> 10 µM"
>>> meas_value("Cc1c(-c2ccc(F)cc2)cc(C(=O)NC2CCCCCC2)c(=O)n1Cc1ccc(F)cc1")
"0.6 µM"
>>> meas_value("Cc1ccc(C(=O)NC2CCCCCC2)c(=O)n1Cc1ccc(F)cc1")
"> 10 µM"
>>> meas_value("Cc1c(-c2ccccc2)cc(C(=O)NC2CCCCCC2)c(=O)n1Cc1ccc(F)cc1")
"> 10 µM"
>>> meas_value("COc1ccc(-c2cc(C(=O)NC3CCCCCC3)c(OCc3ccc(F)cc3)nc2C)cc1")
"> 10 µM"
